biological target: T1, human melanocortin-3 receptor (hMC3-R) (human, UniProt P41968 1-323); test: 125I-NDP-α-MSH competition, hMC3-R membranes
T1 construct: whole, on cells; membranes prepared from hMC3-R cells were used; also called Melanocortin Receptor 3
T1 sequence (P41968 whole entry): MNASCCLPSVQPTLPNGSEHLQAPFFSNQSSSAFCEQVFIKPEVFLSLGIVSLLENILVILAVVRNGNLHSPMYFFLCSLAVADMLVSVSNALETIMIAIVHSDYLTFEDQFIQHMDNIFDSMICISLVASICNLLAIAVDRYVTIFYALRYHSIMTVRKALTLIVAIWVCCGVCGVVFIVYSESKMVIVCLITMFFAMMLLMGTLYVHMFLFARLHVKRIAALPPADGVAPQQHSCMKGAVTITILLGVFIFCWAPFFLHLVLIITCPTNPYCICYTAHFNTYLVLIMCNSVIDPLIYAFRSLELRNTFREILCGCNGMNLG
Square brackets hold non-standard residues; d marks the D form. Ends that are not written are not given here. Nle = CCCC[C@H](N)C(=O)O
% Inhibition at 1 µM by entry:
Note: unit % is implicit; provide only the numeric part.

{"binder": "YV[Nle]GH[dF]CRWDRF-NH2 (not fully specified (bridges); printed as Tyr-Val-Nle-Gly-His-D-Phe-Cys-Arg-Trp-Asp-Arg-Phe-NH2; also: bridge at 7 via Re(V)=O, other end not in the chain) [metallopeptide 3-6]", "% Inhibition at 1 µM, %": 20}
{"binder": "YV[Nle]GH[dF]RWDRCF-NH2 (not fully specified (bridges); printed as Tyr-Val-Nle-Gly-His-D-Phe-Arg-Trp-Asp-Arg-Cys-Phe-NH2; also: oxorhenium(V) N3S1 chelate (backbone N of D9, R10, C11 and C11 S)) [metallopeptide 3-2]", "% Inhibition at 1 µM, %": 91}

Lab note: next binder to report on.
### Prompt Param item = YVXGHFRWDRFC (Nle 3 (X in letters); D-Phe 6; C-terminal amide; Re complexed at Cys 12) [metallopeptide 3-1] ; retrieve measured % Inhibition at 1 µM.
### Response 96

These data points were gathered from patent US20050282739A1.
